Target: biotinylated α-elapitoxin-Dpp2d from Dendroaspis polylepis (Dendroaspis polylepis (black mamba), UniProt C0HJD7)
Sequence (C0HJD7 whole entry): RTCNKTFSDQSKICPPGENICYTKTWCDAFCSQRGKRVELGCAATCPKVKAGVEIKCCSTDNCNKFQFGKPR
Test: BLI; […]; association at pH 7.4, dissociation at pH 5.5; 1:1 global fit
Settings: both partners purified
// NB: equality with 0.0004 s⁻¹ counts as condition not met; only koff strictly below is condition met

1. E01 Fab (Fab, V domains shown) VH: QVQLVQSGAEVKKPGSSVKVSCKASGGTFSSYAISWVRQAPGQGLEWMGGIIPIFGTANYAQKFQGRVTITADESTSTAYMELRSLRSDDTAVYYCARDNLGYCSGGSCYSDYYYYYMDVWGQGTLVTVSS VL: NFMLTQPRSVSESPGKTVTISCTRSSGSIGSDYVHWYQQRPGSSPTTVIYEDNRRPSGVPDRFSGSIASSANSASLTISGLRPEDEADYYCQSYDSTTNHVVFGGGTKVTVL ... condition not met
2. A01 Fab (Fab, V domains shown) VH: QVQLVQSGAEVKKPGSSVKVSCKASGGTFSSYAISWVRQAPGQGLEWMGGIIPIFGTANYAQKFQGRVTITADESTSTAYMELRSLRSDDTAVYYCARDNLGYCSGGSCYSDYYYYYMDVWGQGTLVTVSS VL: SYELTQPPSVSVAPGRTATITCEGDNIGQQIVHWYQQKPGQAPVAVISSDSDRPSGIPERFSGSNSGNTATLTISRVEAGDEADYYCQVWDSGSDHVVFGGGTKVTVL ... condition not met
3. B11 Fab (Fab, V domains shown) VH: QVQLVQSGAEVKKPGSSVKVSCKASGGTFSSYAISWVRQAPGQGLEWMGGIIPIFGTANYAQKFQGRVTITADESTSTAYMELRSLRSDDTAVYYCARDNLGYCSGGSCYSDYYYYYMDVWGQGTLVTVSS VL: SYELTQPPSVSVAPGQTATITCGGHNIGSNIVHWYHQKPGQAPELVISHNTNRPSGIPERFSGSNSGSTATLTISRVEAVDEADYYCQVWDSSSEHVVFGGGTKVTVL ... condition not met
4. G09 Fab (Fab, V domains shown) VH: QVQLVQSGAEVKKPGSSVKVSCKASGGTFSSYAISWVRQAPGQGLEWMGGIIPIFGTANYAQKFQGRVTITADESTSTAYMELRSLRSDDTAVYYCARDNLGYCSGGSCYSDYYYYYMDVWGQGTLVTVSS VL: SYELTQPPSVSVAPGRTATITCEGDNIGQQIVHWYRQKSDQAPVVVVYDGSRRPSGIPERFSGSNSGNTATLTISRVEAGDEADYYCQVWDITSDHVVFGGGTQLTVL ... condition met
5. A12 Fab (Fab, V domains shown) VH: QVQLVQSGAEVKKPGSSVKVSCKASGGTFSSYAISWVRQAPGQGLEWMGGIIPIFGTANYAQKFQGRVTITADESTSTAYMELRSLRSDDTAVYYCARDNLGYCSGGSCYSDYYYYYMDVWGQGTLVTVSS VL: NFMLTQPHSVSESPGKTVTFSCTRSSGRIVSDYVHWYQQRPGSAPTTVIYEDNQRPSGVPDRFSGSIDSSSNSASLTISGLKTEDEADYYCQSYDSSNAYVVFGGGTKVTVL ... condition met
6. C05 Fab, parental mAb 368_01_C05, with the N-glycosylation site of CDR-L3 removed (C05-NS) (Fab, V domains shown) VH: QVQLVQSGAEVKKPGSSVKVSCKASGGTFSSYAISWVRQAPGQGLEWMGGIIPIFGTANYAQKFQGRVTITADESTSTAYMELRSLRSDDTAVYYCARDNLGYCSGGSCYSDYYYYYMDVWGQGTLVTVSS VL: NFMLTQPHSVSESPGKTVTISCTRSSGSIASTYVHWYQQRPGSAPTTVIYEDNQRPSGVPDRFSGSIDSSSNSASLTISGLKTEDEADYYCQSYDSSSGSVVFGGGTKLTVL ... condition not met
7. A04 Fab (Fab, V domains shown) VH: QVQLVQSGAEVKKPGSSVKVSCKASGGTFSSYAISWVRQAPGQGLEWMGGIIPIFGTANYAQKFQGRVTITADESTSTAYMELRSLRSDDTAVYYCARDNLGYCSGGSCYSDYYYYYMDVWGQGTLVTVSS VL: SYELTQPPSMSVAPGQTARITCGGDYIGGESVHWYQQKPGRAPVAVVYDDTHRPSGIPERFSGANSGNTATLTISKVEAGDEADYYCQVWDVSSDHVVFGGGTKLTVL ... condition met
